# Procedure Text: Pharmacokinetics of methylone after single IV, PO or IP administration, plasma LC-MS/MS
# Assay type: in vivo, male Sprague Dawley rats
# Condition Info: male, Sprague Dawley, rat, plasma; IV 5 mg/kg
Test Readout: half-life (min)

molecule="CNC(C)C(=O)c1ccc2c(c1)OCO2 (stereo not shown)" number=21.7

====

# Procedure Text: Pharmacokinetics of methylone after single IV, PO or IP administration, plasma LC-MS/MS
# Assay type: in vivo, male Sprague Dawley rats
# Condition Info: male, Sprague Dawley, rat, plasma; IV 5 mg/kg; read-out: MRT0-last
Test Readout: MRT last (min)

molecule="CNC(C)C(=O)c1ccc2c(c1)OCO2 (stereo not shown) [Methylone, 3,4-methylenedioxy-N-methylacthinone]" unit_label=min number=26.3

====

# System: serotonin transporter (SERT) (Rattus norvegicus (Rat))
# Procedure Text: Competition radioligand binding, [3H]Citalopram, rat brain membranes
# Condition Info: 5-HT transporter; Cheng-Prusoff
Test Readout: Ki (µM)

compound="CN[C@@H](C)C(=O)c1ccc2c(c1)OCO2 [(S)-methylone]" system="serotonin transporter (SERT) (Rattus norvegicus (Rat))" unit_label=µM number=3.95
compound="CNC(C)C(=O)c1ccc2c(c1)OCO2 (racemic) [Racemic methylone]" system="serotonin transporter (SERT) (Rattus norvegicus (Rat))" unit_label=µM number=7.44
compound="CN[C@H](C)C(=O)c1ccc2c(c1)OCO2 [(R)-methylone]" system="serotonin transporter (SERT) (Rattus norvegicus (Rat))" unit_label=µM number=21.1

====

# System: norepinephrine transporter (NET)
# Procedure Text: Competition radioligand binding, [3H]Nisoxetine, rat brain membranes
# Condition Info: NE transporter; Cheng-Prusoff
Overview of recorded Ki for various compounds
Test Readout: Ki

compound="CN[C@H](C)C(=O)c1ccc2c(c1)OCO2 [(R)-methylone]" system="norepinephrine transporter (NET)" test_readout=Ki result="2190 nM"
compound="CN[C@@H](C)C(=O)c1ccc2c(c1)OCO2 [(S)-methylone]" system="norepinephrine transporter (NET)" test_readout=Ki result="3370 nM"
compound="CNC(C)C(=O)c1ccc2c(c1)OCO2 (racemic) [Racemic methylone]" system="norepinephrine transporter (NET)" test_readout=Ki result="1460 nM"

====

# Procedure Text: Pharmacokinetics of methylone after single IV, PO or IP administration, plasma LC-MS/MS
# Format: in vivo, male Sprague Dawley rats
# Condition Info: male, Sprague Dawley, rat, plasma; IP 15 mg/kg; read-out: MRT0-last
Test Readout: MRT last (h)

compound="CNC(C)C(=O)c1ccc2c(c1)OCO2 (stereo not shown)" number=1.07

====

# System: DAT (Rattus norvegicus (Rat), UniProt P23977)
# Procedure Text: [3H]Dopamine uptake inhibition in rat brain synaptosomes
# Condition Info: DA
pIC50: −log10 of the molar value.
Test Readout: pIC50

compound="CN[C@H](C)C(=O)c1ccc2c(c1)OCO2 [(R)-methylone]" number=5.46
compound="CN[C@@H](C)C(=O)c1ccc2c(c1)OCO2 [(S)-methylone]" number=6.20
compound="CNC(C)C(=O)c1ccc2c(c1)OCO2 (racemic) [Racemic methylone]" number=5.84

====

# Procedure Text: Pharmacokinetics of methylone after single IV, PO or IP administration, plasma LC-MS/MS
# Type: in vivo, male Sprague Dawley rats
# Condition Info: male, Sprague Dawley, rat, plasma; PO 15 mg/kg
Test Readout: half-life (h)

compound="CNC(C)C(=O)c1ccc2c(c1)OCO2 (stereo not shown)" number=3.23

====

# Procedure Text: Pharmacokinetics of methylone after single IV, PO or IP administration, plasma LC-MS/MS
# Type: in vivo, male Sprague Dawley rats
# Condition Info: male, Sprague Dawley, rat, plasma; IV 5 mg/kg
Test Readout: clearance (mL/min/kg)

molecule="CNC(C)C(=O)c1ccc2c(c1)OCO2 (stereo not shown)" unit_label=mL/min/kg number=68.3

====

# Procedure Text: Pharmacokinetics of methylone after single IV, PO or IP administration, plasma LC-MS/MS
# Type: in vivo, male Sprague Dawley rats
# Condition Info: male, Sprague Dawley, rat, plasma; IP 15 mg/kg
Test Readout: half-life (min)

molecule="CNC(C)C(=O)c1ccc2c(c1)OCO2 (stereo not shown)" test_readout=half-life unit_label=min number=48

====

# System: SERT (Rattus norvegicus (Rat), UniProt P31652)
# Procedure Text: [3H]5-HT uptake inhibition in rat brain synaptosomes
Overview of recorded IC50 for various molecules
Test Readout: IC50 (nM)

molecule="CN[C@H](C)C(=O)c1ccc2c(c1)OCO2 [(R)-methylone]" system="SERT (Rattus norvegicus (Rat), UniProt P31652)" test_readout=IC50 number=7620
molecule="CN[C@@H](C)C(=O)c1ccc2c(c1)OCO2 [(S)-methylone]" system="SERT (Rattus norvegicus (Rat), UniProt P31652)" test_readout=IC50 number=395
molecule="CNC(C)C(=O)c1ccc2c(c1)OCO2 (racemic) [Racemic methylone]" system="SERT (Rattus norvegicus (Rat), UniProt P31652)" test_readout=IC50 number=811

====

# Procedure Text: Pharmacokinetics of methylone after single IV, PO or IP administration, plasma LC-MS/MS
# Format: in vivo, male Sprague Dawley rats
# Condition Info: male, Sprague Dawley; PO 15 mg/kg, rat plasma
Test Readout: Cmax (ng/mL)

molecule="CNC(C)C(=O)c1ccc2c(c1)OCO2 (stereo not shown) [Methylone, 3,4-methylenedioxy-N-methylacthinone]" number=678

====

# System: hKCNQ1/hminK (Homo sapiens (Human), UniProt P51787)
# Procedure Text: hKCNQ1/hminK Potassium Channel Assay, Qube APC
# Condition Info: KCNQ1/mink, reference compound; read-out: Estimated IC50
Test Readout: IC50 (µM)

molecule="CCS(=O)(=O)N(C)[C@H]1c2cc(C#N)ccc2OC(C)(C)[C@@H]1O (racemic) [Chromanol 293B]" number=45.3

====

# Procedure Text: Pharmacokinetics of methylone after single IV, PO or IP administration, plasma LC-MS/MS
# Type: in vivo, male Sprague Dawley rats
# Condition Info: male, Sprague Dawley, rat, plasma; IV 5 mg/kg
Test Readout: C0 (ng/mL)

compound="CNC(C)C(=O)c1ccc2c(c1)OCO2 (stereo not shown)" number=3020

====

# Procedure Text: Pharmacokinetics of methylone after single IV, PO or IP administration, plasma LC-MS/MS
# Type: in vivo, male Sprague Dawley rats
# Condition Info: male, Sprague Dawley, rat, plasma; IV 5 mg/kg; read-out: Vdss
Test Readout: Vd (L/kg)

compound="CNC(C)C(=O)c1ccc2c(c1)OCO2 (stereo not shown)" unit_label=L/kg number=1.98

====

# Tested on: NET
# Procedure Text: [3H]Norepinephrine uptake inhibition in rat brain synaptosomes
# Type: biochemical
# Condition Info: NE
pIC50: −log10 of the molar value.
Test Readout: pIC50

molecule="CN[C@@H](C)C(=O)c1ccc2c(c1)OCO2 [(S)-methylone]" test_readout=pIC50 number=6.50
molecule="CNC(C)C(=O)c1ccc2c(c1)OCO2 (racemic) [Racemic methylone]" test_readout=pIC50 number=6.45
molecule="CN[C@H](C)C(=O)c1ccc2c(c1)OCO2 [(R)-methylone]" test_readout=pIC50 number=6.62

====

# Procedure Text: Pharmacokinetics of methylone after single IV, PO or IP administration, plasma LC-MS/MS
# Type: in vivo, male Sprague Dawley rats
# Condition Info: male, Sprague Dawley, rat, plasma; PO 15 mg/kg; read-out: Tmax
Test Readout: Tmax (h)

molecule="CNC(C)C(=O)c1ccc2c(c1)OCO2 (stereo not shown)" test_readout=Tmax number=1.33

====

# Procedure Text: Pharmacokinetics of methylone after single IV, PO or IP administration, plasma LC-MS/MS
# Format: in vivo, male Sprague Dawley rats
# Condition Info: male, Sprague Dawley; IP 15 mg/kg, rat plasma
Test Readout: Cmax (ng/mL)

compound="CNC(C)C(=O)c1ccc2c(c1)OCO2 (stereo not shown) [Methylone, 3,4-methylenedioxy-N-methylacthinone]" test_readout=Cmax number=4230

====

# Procedure Text: Pharmacokinetics of methylone after single IV, PO or IP administration, plasma LC-MS/MS
# Assay type: in vivo, male Sprague Dawley rats
# Condition Info: male, Sprague Dawley, rat, plasma; IV 5 mg/kg
Test Readout: AUC(0-t) (ng·h/mL)

compound="CNC(C)C(=O)c1ccc2c(c1)OCO2 (stereo not shown)" test_readout=AUC(0-t) number=1200
